Can you tell me koff for the items I'm about to list?
- testTarget: T1, cynomolgus monkey OX40 protein (Novoprotein, #CB17) (cynomolgus monkey)
- T1 construct: Bought recombinant protein; also called cyno OX40
- assayText: BLI, antibody on ProA sensor, 1:1 global fit
Reply numerically in s⁻¹, unit not repeated.

Q) Query (binder): PR002065 (antibody, human IgG1, V domains shown, no light chain; also called anti-OX40 HCAb antibody) VH: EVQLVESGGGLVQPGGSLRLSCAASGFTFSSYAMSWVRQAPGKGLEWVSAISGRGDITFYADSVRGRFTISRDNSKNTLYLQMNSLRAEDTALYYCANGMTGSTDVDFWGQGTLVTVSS ; field requested: koff
A) 0.00104

Q) Query (binder): PR002063 (antibody, human IgG1, V domains shown, no light chain; also called anti-OX40 HCAb antibody) VH: EVQLLESGGGLVQPGGSLRLSCAASGFTFSSYAMSWVRQAPGRGLEWVSAISGGGGSTFYADSVRGRFTISRDNSKNTLYLQMSSLRAEDTAVYYCANGMTGTTDVDYWGQGTRVTVSS ; field requested: koff
A) 0.00192

Data credit: patent US20230295324A1
